# assayed_system: Histone deacetylase 1 (Homo sapiens, UniProt Q13547)
# Sequence (Q13547 whole entry): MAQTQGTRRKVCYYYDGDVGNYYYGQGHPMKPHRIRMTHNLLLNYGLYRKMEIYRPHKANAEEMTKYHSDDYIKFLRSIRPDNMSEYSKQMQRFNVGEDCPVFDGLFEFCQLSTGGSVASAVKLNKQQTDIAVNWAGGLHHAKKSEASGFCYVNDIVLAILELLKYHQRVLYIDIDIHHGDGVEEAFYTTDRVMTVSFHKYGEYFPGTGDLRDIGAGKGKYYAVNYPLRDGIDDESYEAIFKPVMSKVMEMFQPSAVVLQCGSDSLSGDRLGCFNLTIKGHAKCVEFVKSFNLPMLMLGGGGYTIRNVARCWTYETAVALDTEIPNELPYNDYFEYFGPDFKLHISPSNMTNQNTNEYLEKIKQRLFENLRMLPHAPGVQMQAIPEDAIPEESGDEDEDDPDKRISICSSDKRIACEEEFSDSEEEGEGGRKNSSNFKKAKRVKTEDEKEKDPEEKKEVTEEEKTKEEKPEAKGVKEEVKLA
# method_notes: Inhibition of full length human recombinant HDAC1 expressed in Sf9 baculovirus system using FAM-labeled acetylated peptide as substrate by measuring fluorescence intensity by EMSA method
pIC50: −log10 of the molar value.
measured_parameter: pIC50

Query :: Please report pIC50 with Histone deacetylase 1 (Homo sapiens, UniProt Q13547) for item CC(C)N(Cc1ccc(C(=O)NO)cc1)S(=O)(=O)c1cc(F)c(F)c(F)c1F .
Result :: < 5.30

----------
# method_notes: AUClast in CD-1 mouse at 20 mg/kg, ip
# Assay type: ADME, organism-based
# Design: time 0 - last, dose 20 mg/kg, route ip
# reported_conditions: in vivo
measured_parameter: AUC(0-t) (ng·h/mL)
Hi! Could you send only the number? It should be in ng·h/mL, unit omitted.

Query :: // Input: CCCCN(Cc1ccc(C(=O)NO)cc1)C(=O)Nc1ccccc1 . Output its AUC(0-t) only.
Result :: 2520

----------
# assayed_system: Polyamine deacetylase HDAC10 (Homo sapiens, UniProt Q969S8)
# Sequence (Q969S8 whole entry): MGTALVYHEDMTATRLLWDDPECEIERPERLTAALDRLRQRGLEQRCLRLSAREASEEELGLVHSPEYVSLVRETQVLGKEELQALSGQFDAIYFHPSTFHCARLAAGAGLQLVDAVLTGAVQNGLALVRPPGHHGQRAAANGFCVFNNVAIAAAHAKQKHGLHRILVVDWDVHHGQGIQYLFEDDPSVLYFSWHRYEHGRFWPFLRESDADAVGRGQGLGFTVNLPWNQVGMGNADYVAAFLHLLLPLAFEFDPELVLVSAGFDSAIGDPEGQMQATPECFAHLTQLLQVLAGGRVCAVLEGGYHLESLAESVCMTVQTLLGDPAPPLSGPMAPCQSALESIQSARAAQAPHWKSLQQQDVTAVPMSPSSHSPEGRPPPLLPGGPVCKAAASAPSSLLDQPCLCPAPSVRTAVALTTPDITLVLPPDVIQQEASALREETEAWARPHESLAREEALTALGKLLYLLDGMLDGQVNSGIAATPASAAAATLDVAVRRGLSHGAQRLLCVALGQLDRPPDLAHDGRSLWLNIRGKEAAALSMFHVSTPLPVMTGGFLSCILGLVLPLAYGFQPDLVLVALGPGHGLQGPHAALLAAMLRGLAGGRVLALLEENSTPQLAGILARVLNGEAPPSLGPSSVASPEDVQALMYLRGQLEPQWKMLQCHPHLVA
# method_notes: Inhibition of full length human recombinant HDAC10 expressed in Sf9 baculovirus system using FAM-labeled acetylated peptide as substrate by measuring fluorescence intensity
pIC50: −log10 of the molar value.
measured_parameter: pIC50

Query :: // Input: CC(C)N(Cc1ccc(C(=O)NO)cc1)S(=O)(=O)c1cc(F)c(F)c(F)c1F . Output its pIC50 only.
Result :: < 5.30

----------
# assayed_system: Histone deacetylase 8 (Homo sapiens, UniProt Q9BY41)
# Sequence (Q9BY41 whole entry): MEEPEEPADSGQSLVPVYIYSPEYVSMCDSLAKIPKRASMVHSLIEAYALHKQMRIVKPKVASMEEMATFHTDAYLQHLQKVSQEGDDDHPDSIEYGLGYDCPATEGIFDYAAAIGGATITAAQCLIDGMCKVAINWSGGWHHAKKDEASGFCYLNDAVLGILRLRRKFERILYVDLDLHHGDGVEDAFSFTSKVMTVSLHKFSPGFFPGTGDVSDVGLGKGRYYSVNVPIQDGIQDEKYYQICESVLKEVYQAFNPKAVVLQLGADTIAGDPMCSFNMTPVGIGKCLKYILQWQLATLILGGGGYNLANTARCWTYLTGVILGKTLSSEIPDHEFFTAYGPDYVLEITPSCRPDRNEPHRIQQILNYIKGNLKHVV
# method_notes: Inhibition of full length human recombinant HDAC8 expressed in Sf9 baculovirus system using FAM-labeled acetylated peptide as substrate by measuring fluorescence intensity by EMSA method
Give measured IC50 for each item. Keep answers brief.

Query :: Please report IC50 with Histone deacetylase 8 (Homo sapiens, UniProt Q9BY41) for item O=C(NO)c1ccc2c(c1)CCN(S(=O)(=O)c1cc(F)c(F)c(F)c1F)C2 .
Result :: > 1000 nM

Query :: Please report IC50 with Histone deacetylase 8 (Homo sapiens, UniProt Q9BY41) for item CC(C)N(Cc1ccc(CC(=O)NO)cc1)S(=O)(=O)c1cc(F)c(F)c(F)c1F .
Result :: 84.6 nM

Query :: Please report IC50 with Histone deacetylase 8 (Homo sapiens, UniProt Q9BY41) for item CC(C)N(Cc1ccc(C(=O)NO)cc1)Cc1cc(F)c(F)c(F)c1F .
Result :: > 1000 nM

Query :: Please report IC50 with Histone deacetylase 8 (Homo sapiens, UniProt Q9BY41) for item COCCN(Cc1ccc(C(=O)NO)cc1)S(=O)(=O)c1cc(F)c(F)c(F)c1F .
Result :: > 1000 nM

Query :: Please report IC50 with Histone deacetylase 8 (Homo sapiens, UniProt Q9BY41) for item CC(C)N(Cc1ccc(C(=O)NO)cn1)S(=O)(=O)c1cc(F)c(F)c(F)c1F .
Result :: > 1000 nM
